Target: SHP2-C SH2;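 note: peptide library displayed on the E. coli surface as eCPX fusions, selected cells deep-sequenced, score is each peptide's frequency after selection divided by its frequency in the input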
Assay: SH2 binding enrichment of the phosphorylated peptide, bacterial display (enrichment ratio); higher = better substrate or ligand; peptides without Tyr show the background
Label Y when SH2 binding enrichment is at or above 0.8; anything below gets N.

Worked examples follow.
[
  {
    "CHAIN": "SGDITYGQFAQ [PLCG1_Y210]",
    "ASSIGNED CLASS": "N"
  },
  {
    "CHAIN": "SRASYYRKGGC [ALK_Y1283_Y1278S]",
    "ASSIGNED CLASS": "N"
  },
  {
    "CHAIN": "VFFDLYGGEKF [PTPN11_Y66_D61V_YF]",
    "ASSIGNED CLASS": "N"
  }
]

Q. Decide: is the reported value of SH2 binding enrichment for GCRSKHVGLWG [KCNQ1_Y184_Y184H] equal to or greater than 0.8?
A. Y

Q. Decide: is the reported value of SH2 binding enrichment for RNNIEYVRDIG [MUSK_Y577] equal to or greater than 0.8?
A. N

Q. Decide: is the reported value of SH2 binding enrichment for AEPPDYSPVTQ [ADGRG2_Y285_H290Q] equal to or greater than 0.8?
A. Y

###

Target: EPHB1 (UniProt P54762)
Sequence (P54762 whole entry, looked up): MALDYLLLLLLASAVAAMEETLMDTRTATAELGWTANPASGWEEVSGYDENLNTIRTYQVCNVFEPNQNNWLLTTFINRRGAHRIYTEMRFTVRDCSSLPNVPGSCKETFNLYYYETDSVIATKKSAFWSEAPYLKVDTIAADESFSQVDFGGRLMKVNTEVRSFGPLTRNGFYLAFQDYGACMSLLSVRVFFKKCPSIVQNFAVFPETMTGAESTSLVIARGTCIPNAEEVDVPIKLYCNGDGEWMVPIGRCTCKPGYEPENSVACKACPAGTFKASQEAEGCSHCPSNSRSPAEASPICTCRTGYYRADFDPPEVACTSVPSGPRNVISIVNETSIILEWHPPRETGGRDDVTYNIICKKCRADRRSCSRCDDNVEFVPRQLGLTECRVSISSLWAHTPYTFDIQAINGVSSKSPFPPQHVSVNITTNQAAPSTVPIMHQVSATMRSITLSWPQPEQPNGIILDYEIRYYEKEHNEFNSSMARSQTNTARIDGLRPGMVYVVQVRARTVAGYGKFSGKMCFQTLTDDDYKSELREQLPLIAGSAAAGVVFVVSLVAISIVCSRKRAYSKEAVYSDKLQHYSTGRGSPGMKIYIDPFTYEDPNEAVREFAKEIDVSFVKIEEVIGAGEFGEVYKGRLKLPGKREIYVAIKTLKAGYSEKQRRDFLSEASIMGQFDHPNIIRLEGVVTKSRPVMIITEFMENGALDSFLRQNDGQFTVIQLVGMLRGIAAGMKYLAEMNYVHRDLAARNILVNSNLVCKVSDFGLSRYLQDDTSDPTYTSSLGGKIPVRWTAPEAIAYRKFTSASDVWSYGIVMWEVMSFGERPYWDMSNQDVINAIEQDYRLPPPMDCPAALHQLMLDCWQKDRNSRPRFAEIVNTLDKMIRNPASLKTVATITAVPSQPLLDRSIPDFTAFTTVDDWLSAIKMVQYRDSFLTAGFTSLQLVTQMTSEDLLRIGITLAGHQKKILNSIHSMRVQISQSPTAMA
Experiment: phosphorylation enrichment, bacterial display (enrichment ratio); higher = better substrate or ligand; peptides without Tyr show the background
OBSERVATION TYPE: phosphorylation enrichment
Simply state the number, no unit and no words.

Q. Provide only the value of recorded phosphorylation enrichment for KTKLGYSPLHQ [ANK1_Y735]
A. 0.296

Q. Provide only the value of recorded phosphorylation enrichment for WLFFRYLPIGC [ATP2A2_Y836_A838P]
A. 0.529

Q. Provide only the value of recorded phosphorylation enrichment for PEIIAYQPYGK [PRKCG_Y529]
A. 0.585

###

Target: EPHB2 (UniProt P29323)
Sequence (P29323 whole entry, looked up): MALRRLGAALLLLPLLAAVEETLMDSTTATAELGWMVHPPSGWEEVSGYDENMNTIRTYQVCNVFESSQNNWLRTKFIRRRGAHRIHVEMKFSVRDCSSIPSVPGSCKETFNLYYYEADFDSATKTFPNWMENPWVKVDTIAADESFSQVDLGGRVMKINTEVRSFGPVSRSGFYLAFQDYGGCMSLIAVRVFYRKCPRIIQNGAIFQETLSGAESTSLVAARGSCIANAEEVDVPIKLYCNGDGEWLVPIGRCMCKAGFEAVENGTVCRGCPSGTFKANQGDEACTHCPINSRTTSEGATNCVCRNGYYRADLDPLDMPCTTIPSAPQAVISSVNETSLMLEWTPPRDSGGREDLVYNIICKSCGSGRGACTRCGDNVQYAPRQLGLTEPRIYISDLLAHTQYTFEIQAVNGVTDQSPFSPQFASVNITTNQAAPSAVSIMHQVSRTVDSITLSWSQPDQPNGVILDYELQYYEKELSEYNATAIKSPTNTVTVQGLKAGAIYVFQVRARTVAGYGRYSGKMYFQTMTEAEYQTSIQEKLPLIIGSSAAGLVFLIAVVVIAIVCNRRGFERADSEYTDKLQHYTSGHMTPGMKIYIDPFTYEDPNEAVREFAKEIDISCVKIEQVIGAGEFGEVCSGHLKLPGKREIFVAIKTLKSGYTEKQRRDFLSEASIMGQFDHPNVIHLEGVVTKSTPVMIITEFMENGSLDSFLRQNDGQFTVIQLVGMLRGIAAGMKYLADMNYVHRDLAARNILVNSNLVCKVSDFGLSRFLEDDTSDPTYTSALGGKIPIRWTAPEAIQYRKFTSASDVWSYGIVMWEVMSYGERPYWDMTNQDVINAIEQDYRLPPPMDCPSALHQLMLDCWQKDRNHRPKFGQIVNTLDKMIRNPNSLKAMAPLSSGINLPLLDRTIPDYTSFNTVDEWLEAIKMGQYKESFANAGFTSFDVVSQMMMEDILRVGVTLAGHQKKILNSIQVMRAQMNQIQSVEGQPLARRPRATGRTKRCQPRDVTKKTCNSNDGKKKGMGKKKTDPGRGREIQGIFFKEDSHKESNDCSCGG
Assay: phosphorylation enrichment, bacterial display (enrichment ratio); higher = better substrate or ligand; peptides without Tyr show the background
Label true (1) when phosphorylation enrichment is at or above 0.5; anything below gets false (0).

Worked examples follow.
[
  {
    "CHAIN": "ENAGYYFRVSA",
    "ASSIGNED CLASS": "true (1)"
  },
  {
    "CHAIN": "HRGYLYLAIEY [TEK_Y899]",
    "ASSIGNED CLASS": "false (0)"
  },
  {
    "CHAIN": "GISDEYHVIWH [GCDH_Y398_R402W]",
    "ASSIGNED CLASS": "true (1)"
  },
  {
    "CHAIN": "RAMPVYKKAEH [TP63_Y231]",
    "ASSIGNED CLASS": "false (0)"
  },
  {
    "CHAIN": "SSWPDYVRPLP [HSPB1_Y54_G53D]",
    "ASSIGNED CLASS": "true (1)"
  }
]

Q. Decide: is the reported value of phosphorylation enrichment for FADIAYNFRRG [PAH_Y166_H170R_YF] equal to or greater than 0.5?
A. false (0)

Q. Decide: is the reported value of phosphorylation enrichment for SSSAIYDNPNL [DCP1B_Y191] equal to or greater than 0.5?
A. true (1)

Q. Decide: is the reported value of phosphorylation enrichment for YYLGKYLQEVL [KLB_Y910] equal to or greater than 0.5?
A. true (1)

Q. Decide: is the reported value of phosphorylation enrichment for KLQKYYRQNPD [EHHADH_Y683] equal to or greater than 0.5?
A. false (0)
